- targetDesc: Luciferin 4-monooxygenase (Photinus pyralis)
- assaySummary: inhibition of purified Photinus pyralis luciferase – biochemical, luminescence, purified enzyme, 2006 set, primary screen (AID 1141);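 note: cell-free assay with purified firefly luciferase at 100 ng per well in PBS; test concentration not given here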
- assayConditions: purified firefly luciferase, SteadyGlo luminescence, 30 min, called active from +8 up or from −8 down
Activity calls are given as the source filed them.
// classify into Yes = active, No = inactive

Query :: Just curious, what result did `CC(=O)NCCCC[C@@H]1NC(=O)[C@H]2C[C@@H](C(=O)O)[C@@H](c3ccc(O)cc3)N2C1=O` get here?
Result :: No

Query :: Please share the test call associated with `O=C1[C@@]23C=C(Br)[C@H](C[C@@H]2COC3)[C@]12CO2` .
Result :: No

Query :: Each compound tested received a call. Report the one for `COCCOC(=O)N1C(=O)[C@@]2(c3cc(C#CC4(O)CCCCCC4)ccc31)[C@H](C(=O)Nc1nc3ccccc3s1)[C@H]1C(=O)O[C@H](c3ccccc3)[C@H](c3ccccc3)N1[C@@H]2c1ccccc1OCCO` .
Result :: No

Query :: In this assay, the call recorded for `C=C(CCCC)/C(=C/C[C@@H](OC(C)=O)c1cccc(OCCO)c1)c1cnc2ccccc2c1` was what?
Result :: No

Query :: Which outcome was assigned to `COCCCNC(=O)[C@@]1(Sc2ccc(C)cc2)CC(=O)N(Cc2ccccc2Cl)[C@@H]1c1ccc(CO)cc1` in this test?
Result :: No

Query :: What call does the record list for CCC(CC)C(O)C1C=CC2C(=O)N(c3ccccc3)C(=O)C2N1Nc1ccccc1 (centres undefined) ?
Result :: No

Query :: Per the records of this test, what outcome belongs to `COC(=O)C(CC#Cc1ccc2c(c1)[C@]1(C(=O)N2)[C@H](c2ccccc2OCCO)N2[C@H](c3ccccc3)[C@H](c3ccccc3)OC(=O)[C@H]2[C@@H]1C(=O)O)C(=O)OC` ?
Result :: No

Query :: # outcome recorded in this test, key = `C[N+](C)(C)CCCC[C@@H]1NC(=O)[C@H]2C[C@@H](C(=O)NCCCCCCNC(=O)CS)[C@@H](c3ccc(O)cc3)N2C1=O`
Result :: No

Query :: // param item: `COc1ccc(CCNC(=O)[C@@]2(c3ccc([N+](=O)[O-])cc3)CC(=O)N(CC34CC5CC(CC(C5)C3)C4)[C@@H]2c2ccc(CO)cc2I)cc1` ; yields the recorded call
Result :: No

Query :: Status in this test for `COC(=O)[C@@]1(Cc2ccc(OC)cc2)[C@H]2c3cc(C(=O)N4CCCC4)n(CCc4ccc(O)c(O)c4)c3C[C@H]2CN1C(=O)c1ccccc1` ?
Result :: No

Query :: Could you please tell me the result logged for `[N-]=[N+]=NCc1ccccc1[C@H]1OC(c2ccc(OCCCO)cc2)=N[C@@]1(Cc1ccccc1)C(=O)N1CCCCC1` in this assay?
Result :: No

Query :: What outcome does the record of this test show for `CCOC(=O)C[C@H]1[C@H](OC(=O)c2ccc(C(=O)c3ccccc3)cc2)[C@@H](NC(=O)Cc2ccc(OC)cc2)c2cc(OCCCO)ccc2N1C(=O)c1ccc2ccccc2n1` ?
Result :: No

Query :: Would you mind telling me which call this test gave `COc1ccc(CCNC(=O)[C@@]2(C)c3ccccc3C(=O)N(c3ccc(C)cn3)[C@H]2c2ccc(CO)cc2)cc1` ?
Result :: No

Query :: For `COC(=O)[C@@]1(Cc2ccccc2)[C@H]2c3cc(C(=O)N4CCCC4)n(Cc4ccc(O)c(OC)c4)c3C[C@H]2CN1C(=O)c1ccccc1` , which call appears in the assay record?
Result :: No

Query :: Returns: the outcome recorded for `CC(C)(C)OC(=O)CC[C@]1(C(=O)NCCN2CCOCC2)COC(c2ccc(OCCCO)cc2)=N1` in this assay.
Result :: No

Query :: Which outcome did this test record for the compound C=CCC(OC(C)=O)[C@@H]1[C@@H](N(Cc2ccc(-c3cccc(C(F)(F)F)c3)o2)C(=O)c2cccc3ccccc23)c2cc(OCCCO)ccc2N1C(=O)Cc1ccc2ccccc2c1 (some centres undefined) ?
Result :: No

Query :: Each compound tested received a call. Report the one for Cc1ccc(C2C3C(=O)CC4C(=O)N(c5ccccc5)C(=O)C4C3CN2S(=O)(=O)c2ccc(C)cc2)cc1 (centres undefined) .
Result :: No

Query :: Which outcome was entered for the compound `COc1ccc(C(=O)Nc2ccc(CN3C(=O)[C@]4(O[C@H](CC(=O)N5CCC[C@H]5CO)[C@@H]([Si](C)(C)c5ccc(OC)cc5)[C@@H]4C)c4ccccc43)cc2)cc1` in this test?
Result :: No

Query :: Assay outcome for `O=C1C[C@@](C(=O)NCc2ccccc2)(c2ccc([N+](=O)[O-])cc2)[C@@H](c2ccc(CO)cc2)N1CC12CC3CC(CC(C3)C1)C2` : what was it?
Result :: No

Query :: Outcome logged for `COCCCNC(=O)[C@@]1(Cc2ccccc2)N=C(c2ccc(OCCCO)cc2)O[C@H]1c1ccccc1CN=[N+]=[N-]` in this assay:
Result :: No

Query :: // param item: `Cc1ccc(S[C@]2(C(=O)O)CC(=O)N(Cc3ccccc3C(F)(F)F)[C@@H]2c2ccc(CO)cc2I)cc1` ; yields the recorded call
Result :: No

Query :: Hi, sorry to bother you, what did the test record for `COCCOC(=O)N1C(=O)[C@@]2(c3cc(C#Cc4ccc(OC)cc4)ccc31)[C@H](c1ccc(O)cc1)N1[C@H](c3ccccc3)[C@H](c3ccccc3)OC(=O)[C@H]1[C@@H]2C(=O)Nc1nc2ccccc2s1` ?
Result :: No

Query :: Check the results log: what was the call for O=C1C2C=CC(C(O)c3c(F)cccc3Cl)N(Nc3ccccc3F)C2C(=O)N1c1ccccc1 (centres undefined) ?
Result :: No

Query :: What did the test return for `C#CCNCc1ccccc1` ?
Result :: No

Query :: I would be grateful if you could indicate the recorded call for `NC(=O)[C@@H]1[C@H]2C(=O)O[C@H](c3ccccc3)[C@H](c3ccccc3)N2[C@H](c2ccc(O)cc2)[C@@]12C(=O)Nc1ccc(C#CC3=CCCCC3)cc12` .
Result :: No

Query :: Hi team, can someone confirm the assay call for `COc1ccc([C@H]2OC[C@@H]3CCC(=O)N32)cc1` ?
Result :: No

Query :: // outcome(item) with item = `COCCCNC(=O)[C@@]1(Cc2ccccc2CN=[N+]=[N-])N=C(c2ccc(OCCCO)cc2)O[C@H]1c1ccccc1CN=[N+]=[N-]`
Result :: No

Query :: Assay result, entry OCCCC1=CC(C2CC2)N(Cc2cccc(OC(F)(F)F)c2)CC1 (centres undefined) — outcome?
Result :: No

Query :: How was `O=C1N(CCS(=O)(=O)c2ccccc2)c2ccccc2[C@@H]2OC(c3ccc(OCCCO)cc3)=N[C@]12Cc1ccccc1` classified in this test?
Result :: Yes
